# TARGET_ENTITY: human CCR8 (human, UniProt P51685 1-355)
# ASSAY_SUMMARY: cell-based or functional assay
ASSAY_READOUT: hCCL1 (100 nM) residual response, Protocol #3, mAb 5 µg/mL (%)
The response must be a number in % with no trailing unit.

The binder identified as 3-13 (antibody, V domains shown) VH: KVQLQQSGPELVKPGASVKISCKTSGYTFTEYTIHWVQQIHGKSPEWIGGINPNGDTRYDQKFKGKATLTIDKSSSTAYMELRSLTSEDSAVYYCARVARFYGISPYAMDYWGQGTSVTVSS VL: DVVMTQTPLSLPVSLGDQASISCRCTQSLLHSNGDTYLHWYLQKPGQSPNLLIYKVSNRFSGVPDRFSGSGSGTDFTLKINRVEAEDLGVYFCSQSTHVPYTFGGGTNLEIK registered its hCCL1 (100 nM) residual response, Protocol #3, mAb 5 µg/mL at 73

The binder identified as 3-53 (antibody, V domains shown) VH: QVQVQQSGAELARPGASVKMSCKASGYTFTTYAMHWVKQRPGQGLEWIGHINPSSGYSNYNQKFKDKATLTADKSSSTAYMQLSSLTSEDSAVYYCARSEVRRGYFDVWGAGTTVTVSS VL: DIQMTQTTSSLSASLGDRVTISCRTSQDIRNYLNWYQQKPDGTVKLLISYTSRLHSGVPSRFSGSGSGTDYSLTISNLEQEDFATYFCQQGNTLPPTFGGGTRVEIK registered its hCCL1 (100 nM) residual response, Protocol #3, mAb 5 µg/mL at 59

The binder identified as 3-43 (antibody, V domains shown) VH: QVQLQQPGAELVKPGASVKMSCKATGYTFTGYNMHWVKQTPGQGLEWIGAISPGKGDTSYNLKFKGKATLTTDKSSSTAYMQLSSLTSADSAVYYCARSGGTPFAYWGQGTLVTVSA VL: DVVMTQTPLSLPVSLGDQASISCRSSQSLVHSNGDTYLYWYLQKPGQSPKLLIYKVSNRFSGVPDRFSGSGSGTDFTLKINRVEAEDLGVYFCSQSTHVPYTFGGGTKLEIK registered its hCCL1 (100 nM) residual response, Protocol #3, mAb 5 µg/mL at 84
